- ASSAY COMMENT: in vivo
- PARTICULARS: both, Sprague-Dawley, rat, po, 18 g/kg, AUC0-t in stomach
METRIC NAME: AUC(0-t) (µM·h)
Just the number please, in µM·h, no unit attached.

response.value for O=C1c2cc(O)cc(O)c2C(=O)c2c(O)cc(CO)cc21 (field: AUC(0-t)) = 0.783

---

- ASSAY COMMENT: Plasma pharmacokinetics of RPM constituents after oral RPM extract
- PARTICULARS: Sprague-Dawley, rat, plasma, po, 18 g/kg
METRIC NAME: Tmax (min)
Just the number please, in min, no unit attached.

COc1cc(O[C@@H]2O[C@H](CO)[C@@H](O)[C@H](O)[C@H]2O)c2c(c1)C(=O)c1cc(C)cc(O)c1C2=O [PG, physcion-8-O-β-D-glucoside] ... 15.6

response.value for Cc1cc(O)c2c(c1)C(=O)c1cccc(O)c1C2=O (field: Tmax) = 211

response.value for COc1cc(O[C@@H]2O[C@H](CO)[C@@H](O)[C@H](O)[C@H]2O)c2c(O)c(C(C)=O)c(C)cc2c1 [TG, torachrysone-8-O-glucoside] (field: Tmax) = 6.6

response.value for Cc1cc(O)c2c(c1)C(=O)c1cc(O)cc(O)c1C2=O (field: Tmax) = 8.4

response.value for COc1cc(O)cc2c1C(=O)c1c(O)cc(CO)cc1C2=O (field: Tmax) = 110

response.value for O=C(O)c1cc(O)c2c(c1)C(=O)c1cccc(O)c1C2=O (field: Tmax) = 25.2

---

- ASSAY COMMENT: in vivo
- PARTICULARS: Sprague-Dawley, rat, po, 18 g/kg
METRIC NAME: MRT inf

response.value for O=C1c2cc(O)cc(O)c2C(=O)c2c(O)cc(CO)cc21 (field: MRT inf) = 5.69 h

---

dose excreted: recorded values
- ASSAY COMMENT: Excretion into urine and feces and mass balance after oral RPM extract
- PARTICULARS: Sprague-Dawley, rat, urine, po, Recovery in urine (%), mass balance; 18 g/kg RPM extract p.o.; urine collected 0–72 h
Just the number please, in %, no unit attached.

# count of solved cases: 2
O=C1c2cccc(O)c2C(=O)c2c(O)cc(CO)cc21 ... 9.69
COc1cc(O[C@@H]2O[C@H](CO)[C@@H](O)[C@H](O)[C@H]2O)c2c(O)c(C(C)=O)c(C)cc2c1 [TG, torachrysone-8-O-glucoside] ... 17.6

response.value for Cc1cc(O)c2c(c1)C(=O)c1cc(O)cc(O)c1C2=O (field: dose excreted) = 8.82

response.value for OC[C@H]1O[C@@H](Oc2c(O)cc(O)cc2/C=C/c2ccc(O)cc2)[C@H](O)[C@@H](O)[C@@H]1O (field: dose excreted) = 14.3

response.value for COc1cc(O[C@@H]2O[C@H](CO)[C@@H](O)[C@H](O)[C@H]2O)c2c(c1)C(=O)c1cc(C)cc(O)c1C2=O [PG, physcion-8-O-β-D-glucoside] (field: dose excreted) = 4.83

---

- ASSAY COMMENT: Plasma pharmacokinetics of RPM constituents after oral RPM extract
- PARTICULARS: Sprague-Dawley, rat, plasma, po, 6 g/kg
Cut-off 7 h on half-life, inclusive. At or above means condition met; below means condition not met.

Cc1cc(O)c2c(c1)C(=O)c1cccc(O)c1C2=O [Chrysophanol] ... condition met

State whether the measured half-life reaches 7 h, counting equality as reaching it, for O=C1c2cccc(O)c2C(=O)c2c(O)cc(CO)cc21 [Aloe-emodin, aloe-emodin]
condition met

State whether the measured half-life reaches 7 h, counting equality as reaching it, for COc1cc(O[C@@H]2O[C@H](CO)[C@@H](O)[C@H](O)[C@H]2O)c2c(c1)C(=O)c1cc(C)cc(O)c1C2=O [PG, physcion-8-O-β-D-glucoside]
condition not met

State whether the measured half-life reaches 7 h, counting equality as reaching it, for COc1cc(O[C@@H]2O[C@H](CO)[C@@H](O)[C@H](O)[C@H]2O)c2c(O)c(C(C)=O)c(C)cc2c1 [TG, torachrysone-8-O-glucoside]
condition not met

---

- ASSAY COMMENT: Tissue distribution of RPM constituents after oral RPM extract
- PARTICULARS: both, Sprague-Dawley, rat, heart, po, 18 g/kg, AUC0-t in heart, rat tissue: heart; 18 g/kg RPM extract p.o.; tissues collected at 5, 15, 60 min
Output Y for records whose AUC(0-t) is lower than 2 µM·h, N for records at or above 2 µM·h.

Solved cases (4 shown):
COc1cc(O[C@@H]2O[C@H](CO)[C@@H](O)[C@H](O)[C@H]2O)c2c(c1)C(=O)c1cc(C)cc(O)c1C2=O [PG, physcion-8-O-β-D-glucoside] ... Y
COc1cc(O[C@@H]2O[C@H](CO)[C@@H](O)[C@H](O)[C@H]2O)c2c(O)c(C(C)=O)c(C)cc2c1 [TG, torachrysone-8-O-glucoside] ... Y
COc1cc(O)cc2c1C(=O)c1c(O)cc(CO)cc1C2=O [Questinol, questinol] ... Y
Cc1cc(O)c2c(c1)C(=O)c1cccc(O)c1C2=O [Chrysophanol] ... Y

Read the next record carefully.
is_below(AUC(0-t), 2 µM·h) for OC[C@H]1O[C@@H](Oc2c(O)cc(O)cc2/C=C/c2ccc(O)cc2)[C@H](O)[C@@H](O)[C@@H]1O [TSG] ?
N

---

- ASSAY COMMENT: Tissue distribution of RPM constituents after oral RPM extract
- PARTICULARS: both, Sprague-Dawley, rat, stomach, po, 18 g/kg, AUC0-t in stomach, rat tissue: stomach; 18 g/kg RPM extract p.o.; tissues collected at 5, 15, 60 min
Output True for records whose AUC(0-t) is lower than 0.03 µM·h, False for records at or above 0.03 µM·h.

COc1cc(O)cc2c1C(=O)c1c(O)cc(CO)cc1C2=O [Questinol, questinol] ... True

Read the next record carefully.
is_below(AUC(0-t), 0.03 µM·h) for Cc1cc(O)c2c(c1)C(=O)c1cccc(O)c1C2=O [Chrysophanol] ?
False

---

log10 of AUC(0-t): recorded values
- ASSAY COMMENT: Tissue distribution of RPM constituents after oral RPM extract
- PARTICULARS: both, Sprague-Dawley, rat, kidney, po, 18 g/kg, AUC0-t in kidney, rat tissue: kidney; 18 g/kg RPM extract p.o.; tissues collected at 5, 15, 60 min
The common logarithm of AUC(0-t) in µM·h is what is listed.

OC[C@H]1O[C@@H](Oc2c(O)cc(O)cc2/C=C/c2ccc(O)cc2)[C@H](O)[C@@H](O)[C@@H]1O ... 1.94

response.value for COc1cc(O[C@@H]2O[C@H](CO)[C@@H](O)[C@H](O)[C@H]2O)c2c(O)c(C(C)=O)c(C)cc2c1 [TG, torachrysone-8-O-glucoside] (field: log10 of AUC(0-t)) = -0.07

response.value for COc1cc(O)cc2c1C(=O)c1c(O)cc(CO)cc1C2=O (field: log10 of AUC(0-t)) = -1.61

response.value for COc1cc(O[C@@H]2O[C@H](CO)[C@@H](O)[C@H](O)[C@H]2O)c2c(c1)C(=O)c1cc(C)cc(O)c1C2=O [PG, physcion-8-O-β-D-glucoside] (field: log10 of AUC(0-t)) = 0.51

response.value for Cc1cc(O)c2c(c1)C(=O)c1cccc(O)c1C2=O (field: log10 of AUC(0-t)) = -1.88

---

- ASSAY COMMENT: Tissue distribution of RPM constituents after oral RPM extract
- PARTICULARS: male, Sprague-Dawley, rat, testis, po, 18 g/kg
METRIC NAME: AUC(0-t) (µM·h)
Just the number please, in µM·h, no unit attached.

response.value for Cc1cc(O)c2c(c1)C(=O)c1cc(O)cc(O)c1C2=O [Emodin, emodin] (field: AUC(0-t)) = 0.116

---

- ASSAY COMMENT: Tissue distribution of RPM constituents after oral RPM extract
- PARTICULARS: both, Sprague-Dawley, rat, kidney, po, 18 g/kg, AUC0-t in the kidney, RPM extract 18 g/kg p.o., rat kidney, sampling 5, 15, 60 min
METRIC NAME: AUC(0-t) (µM·h)
Just the number please, in µM·h, no unit attached.

response.value for OC[C@H]1O[C@@H](Oc2c(O)cc(O)cc2/C=C/c2ccc(O)cc2)[C@H](O)[C@@H](O)[C@@H]1O (field: AUC(0-t)) = 86.4

---

- ASSAY COMMENT: Tissue distribution of RPM constituents after oral RPM extract
- PARTICULARS: both, Sprague-Dawley, rat, bladder, po, 18 g/kg
METRIC NAME: AUC(0-t) (µM·h)
Just the number please, in µM·h, no unit attached.

response.value for Cc1cc(O)c2c(c1)C(=O)c1cc(O)cc(O)c1C2=O (field: AUC(0-t)) = 0.988
